Some compounds, each annotated with its measured IC50.
systemTested: Human immunodeficiency virus type 1 reverse transcriptase (Human immunodeficiency virus 1, UniProt Q72547)
Please state the figure in µM; there is no need to write the unit.

CC(C)(C)C(=O)COC(=O)c1ccc([N+](=O)[O-])s1    5.7

Okay, now this compound:
Noted for CC(C)OC(=O)COC(=O)c1ccc([N+](=O)[O-])o1 : its IC50 reads 13.2

* * *

The reader will find IC50 measurements below, all made with Human immunodeficiency virus type 1 reverse transcriptase (Human immunodeficiency virus 1).

CCC(C)(C)NC(=O)COC(=O)c1ccc([N+](=O)[O-])o1    5.8 µM
O=C(COC(=O)c1ccc([N+](=O)[O-])o1)NC1Cc2ccccc2C1    5.5 µM
CC(C)(C)N(Cc1ccc(C(F)(F)F)cc1)C(=O)COC(=O)c1ccc([N+](=O)[O-])o1    8 µM
CC(C)(C)N(Cc1ccccc1)C(=O)COC(=O)c1ccc([N+](=O)[O-])o1    0.9 µM
O=C(COC(=O)c1ccc([N+](=O)[O-])o1)NC1CCCc2ccccc21 (stereo not given)    4.3 µM

The value of IC50 recorded for CC(C)(C)N(Cc1ccc(F)cc1)C(=O)COC(=O)c1ccc([N+](=O)[O-])o1 when tested on Human immunodeficiency virus type 1 reverse transcriptase (Human immunodeficiency virus 1) reads 8.5 µM

The value of IC50 recorded for CC(C)(C)N(Cc1c(F)c(F)c(F)c(F)c1F)C(=O)COC(=O)c1ccc([N+](=O)[O-])o1 when tested on Human immunodeficiency virus type 1 reverse transcriptase (Human immunodeficiency virus 1) reads 6.8 µM

* * *

Some molecules, each annotated with its measured CC50 at 72 h.
assayDetails: Cytotoxicity against human 293T cells after 3 days by MTT assay
Type: cell-based, HEK-293T
reportedConditions: 293T cells

Record excerpt, results attached:
O=C(COC(=O)c1ccc([N+](=O)[O-])o1)NCC1CCCO1 (stereo not given)    > 100 µM
CC(=O)COC(=O)c1ccc([N+](=O)[O-])o1    > 100 µM

Noted for CC(C)(C)N(Cc1ccccc1)C(=O)COC(=O)c1ccc([N+](=O)[O-])o1 : its CC50 at 72 h reads > 100 µM

Noted for O=C(COC(=O)c1ccc([N+](=O)[O-])o1)NC1CCc2ccccc21 (stereo not given) : its CC50 at 72 h reads > 100 µM

Noted for CC(C)(C)N(CCc1ccccc1)C(=O)COC(=O)c1ccc([N+](=O)[O-])o1 : its CC50 at 72 h reads 67 µM

* * *

assayDetails: Cytotoxicity against human MT4 cells after 3 days by MTT assay
Type: cell-based
reportedConditions: MT4 cells
experimentalReadout: CC50 at 72 h

Record excerpt, results attached:
CC(C)(C)N(CCc1ccccc1)C(=O)COC(=O)c1ccc([N+](=O)[O-])o1    > 100 µM
CC(C)OC(=O)COC(=O)c1ccc([N+](=O)[O-])o1    > 100 µM
CN(OC(=O)c1ccc([N+](=O)[O-])o1)C(=O)c1ccc([N+](=O)[O-])o1    86 µM
O=C(COC(=O)c1ccc([N+](=O)[O-])o1)NCC1CCCO1 (stereo not given)    > 100 µM

Okay, now this compound:
Noted for CC(C)(C)NC(=O)COC(=O)c1ccc([N+](=O)[O-])s1 : its CC50 at 72 h reads > 100 µM
